# assayedSystem: baculoviral GST-MLK3KD (Homo sapiens, UniProt Q16584)
# Construct: 2 μg/ml of baculoviral GST-MLK3KD; GST (N); host or cells: baculovirus expression system
# Sequence (Q16584 117-379 limits assumed): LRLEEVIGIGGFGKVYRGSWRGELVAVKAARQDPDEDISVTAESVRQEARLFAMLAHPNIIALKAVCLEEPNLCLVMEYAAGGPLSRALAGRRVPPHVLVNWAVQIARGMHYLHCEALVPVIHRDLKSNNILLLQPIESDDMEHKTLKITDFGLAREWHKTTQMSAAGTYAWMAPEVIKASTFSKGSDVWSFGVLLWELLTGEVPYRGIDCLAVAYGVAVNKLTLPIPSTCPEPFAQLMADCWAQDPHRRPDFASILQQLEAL
# assayOverview: Mixed Lineage Kinase-3 inhibition assay (Millipore Multiscreen plate, 32P)
# Format: biochemical
# conditions: 1 uM compound; 100 μM ATP
Give Y when the value for MLK-3 Kinase % inhibition @ 1 uM is at least 30%. Give N when it is less.

Take a look at these entries with their results.
| compound | assignedClass |
| --- | --- |
| Cn1cc(C=C2C(=O)NN=C2c2ccco2)c2ccccc21 [Compound 45] | Y |
| O=C1NN=C(c2ccoc2)C1=Cc1c[nH]c2ccc(F)cc12 [Compound 19] | N |
| O=C1NN=C(c2ccco2)C1=Cc1c[nH]c2cccc(OCc3ccccc3)c12 [Compound 44] | N |

**Query** Record Cc1cc(C)c(C=C2C(=O)NN=C2c2cccnc2)[nH]1 [Compound 10] ; criterion: MLK-3 Kinase % inhibition @ 1 uM no lower than 30%. Met?
**Result** Y

**Query** Hi team, for Cn1cc(C=C2C(=O)NN=C2c2cc3ccccc3o2)c2ccccc21 [Compound 59] , is the recorded MLK-3 Kinase % inhibition @ 1 uM at or above 30%?
**Result** Y

**Query** Reported MLK-3 Kinase % inhibition @ 1 uM at or above 30%? O=C1NN=C(c2ccco2)C1=Cc1cn(Cc2ccccc2)c2ccccc12 [Compound 69]
**Result** N

**Query** Can N#CCCn1cc(C=C2C(=O)NN=C2c2cccs2)c2ccccc21 [Compound 66] be said to have MLK-3 Kinase % inhibition @ 1 uM at or above 30%?
**Result** N

**Query** In plain terms: is recorded MLK-3 Kinase % inhibition @ 1 uM at least 30% for N#CCCn1cc(C=C2C(=O)NN=C2c2nccs2)c2ccccc21 [Compound 64] ?
**Result** N

**Query** Quick check: does O=C1NN=C(c2ccoc2)C1=Cc1ccc[nH]1 [Compound 12] have MLK-3 Kinase % inhibition @ 1 uM greater than or equal to 30%?
**Result** N

**Query** API: above_or_equal(metric=MLK-3 Kinase % inhibition @ 1 uM, cutoff=30%) for item Cc1ccc2c(C=C3C(=O)NN=C3c3ccn(C)c3)c[nH]c2c1 [Compound 33]
**Result** N

**Query** Reported MLK-3 Kinase % inhibition @ 1 uM reaches at least 30% for O=C1NN=C(c2cc3ccccc3o2)C1=Cc1c[nH]c2ccccc12 [Compound 58] ?
**Result** Y

**Query** Determine whether this compound has MLK-3 Kinase % inhibition @ 1 uM no lower than 30%: Cc1nc(C)c(C2=NNC(=O)C2=Cc2c[nH]c3ccccc23)s1 [Compound 13]
**Result** N

**Query** Quick check, MLK-3 Kinase % inhibition @ 1 uM >= 30%? Cc1cc(C)c(C=C2C(=O)NN=C2c2ccoc2)[nH]1 [Compound 1]
**Result** N

**Query** Does CCc1c(C=C2C(=O)NN=C2c2ccoc2)[nH]c(C(=O)OCc2ccccc2)c1C [Compound 5] have a reported MLK-3 Kinase % inhibition @ 1 uM of at least 30%?
**Result** N

**Query** Hi team, for Cc1cc(C)c(C=C2C(=O)NN=C2c2csc3ccccc23)[nH]1 [Compound 39] , is the recorded MLK-3 Kinase % inhibition @ 1 uM at or above 30%?
**Result** Y

**Query** Could you verify whether the entry O=C1NN=C(c2ccco2)C1=Cc1cn(CCOCc2ccccc2)c2ccccc12 [Compound 71] shows MLK-3 Kinase % inhibition @ 1 uM of no less than 30%?
**Result** N

**Query** Check this compound for MLK-3 Kinase % inhibition @ 1 uM at or above 30%: Cn1cc(C=C2C(=O)NN=C2c2ccoc2)c2ccccc21 [Compound 20]
**Result** Y

**Query** // inclusive: MLK-3 Kinase % inhibition @ 1 uM at least 30%? input: O=C1NN=C(c2ccoc2)C1=Cc1c[nH]c2ccc(OCc3ccccc3)cc12 [Compound 21]
**Result** N

* * *

# assayedSystem: recombinant human baculoviral VEGFR2 cyctoplasmic domain (Homo sapiens)
# Construct: recombinant human baculoviral VEGFR2 cyctoplasmic domain; host or cells: baculovirus expression system
# Sequence (P35968 786-1356 limits assumed): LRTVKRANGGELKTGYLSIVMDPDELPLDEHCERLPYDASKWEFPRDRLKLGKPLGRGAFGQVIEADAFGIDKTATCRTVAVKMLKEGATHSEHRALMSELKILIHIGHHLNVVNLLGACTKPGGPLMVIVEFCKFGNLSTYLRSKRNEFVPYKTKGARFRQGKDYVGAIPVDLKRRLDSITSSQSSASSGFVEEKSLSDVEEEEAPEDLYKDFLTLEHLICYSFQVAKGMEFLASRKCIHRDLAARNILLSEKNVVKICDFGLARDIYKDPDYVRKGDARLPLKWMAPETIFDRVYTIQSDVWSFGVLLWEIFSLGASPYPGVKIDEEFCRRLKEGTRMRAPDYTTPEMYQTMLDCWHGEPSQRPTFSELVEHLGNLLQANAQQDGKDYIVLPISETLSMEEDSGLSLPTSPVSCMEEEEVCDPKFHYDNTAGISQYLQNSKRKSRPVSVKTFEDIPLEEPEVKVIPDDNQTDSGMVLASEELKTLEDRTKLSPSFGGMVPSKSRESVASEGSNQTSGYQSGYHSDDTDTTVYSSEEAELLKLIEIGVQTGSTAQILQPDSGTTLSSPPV
# assayOverview: VEGFR2 kinase inhibition assay (ELISA-based, time-resolved fluorescence)
# Type: biochemical
# conditions: 1 uM compound; 30 μM ATP
Form field: VEGFR-2 kinase % inhibition @ 1 uM (one value per entry).
Number in %, nothing else.

// below: answered molecules
| smilesRecord | unitAbbreviation | reportedResult |
| --- | --- | --- |
| Cn1ccc(C2=NNC(=O)C2=Cc2c[nH]c3ccc(Cl)cc23)c1 | % | 19 |
| Cn1ccc(C2=NNC(=O)C2=Cc2c[nH]c3ccccc23)c1 | % | 32 |
| O=C1NN=C(c2ccoc2)C1=Cc1c[nH]c2ccc(OCc3ccccc3)cc12 | % | 12 |

**Query** Hello, I am looking for reported VEGFR-2 kinase % inhibition @ 1 uM with recombinant human baculoviral VEGFR2 cyctoplasmic domain (Homo sapiens) for Cc1cc(C)c(C=C2C(=O)NN=C2c2sc(C)nc2C)[nH]1 . Could you help?
**Result** 13

**Query** Form field: VEGFR-2 kinase % inhibition @ 1 uM recorded for Cc1ccc2c(C=C3C(=O)NN=C3c3ccco3)c[nH]c2c1 with recombinant human baculoviral VEGFR2 cyctoplasmic domain (Homo sapiens) (enter value)
**Result** 71

**Query** Item O=C1NN=C(c2nccs2)C1=Cc1cn(CCOCc2ccccc2)c2ccccc12 with recombinant human baculoviral VEGFR2 cyctoplasmic domain (Homo sapiens) - VEGFR-2 kinase % inhibition @ 1 uM?
**Result** 3

**Query** Missing value: VEGFR-2 kinase % inhibition @ 1 uM, recombinant human baculoviral VEGFR2 cyctoplasmic domain (Homo sapiens), entry O=C1NN=C(c2cccs2)C1=Cc1cn(Cc2ccccc2)c2ccccc12 . Fill in?
**Result** 32

**Query** // lookup VEGFR-2 kinase % inhibition @ 1 uM | system=recombinant human baculoviral VEGFR2 cyctoplasmic domain (Homo sapiens) | key= O=C1NN=C(c2cccs2)C1=Cc1c[nH]c2ccccc12
**Result** 52

**Query** Hello, I am looking for reported VEGFR-2 kinase % inhibition @ 1 uM with recombinant human baculoviral VEGFR2 cyctoplasmic domain (Homo sapiens) for Cn1cc(C=C2C(=O)NN=C2c2cc3ccccc3o2)c2ccccc21 . Could you help?
**Result** 14

**Query** // fetch recombinant human baculoviral VEGFR2 cyctoplasmic domain (Homo sapiens) VEGFR-2 kinase % inhibition @ 1 uM for O=C1NN=C(c2ccco2)C1=Cc1cn(Cc2ccccc2)c2ccccc12
**Result** 5

**Query** What reported VEGFR-2 kinase % inhibition @ 1 uM corresponds to Cn1ccc(C2=NNC(=O)C2=Cc2c[nH]c3ccc(F)cc23)c1 on recombinant human baculoviral VEGFR2 cyctoplasmic domain (Homo sapiens)?
**Result** 47

**Query** Recorded VEGFR-2 kinase % inhibition @ 1 uM for Cc1[nH]c(C=C2C(=O)NN=C2c2ccoc2)c(Br)c1Br with recombinant human baculoviral VEGFR2 cyctoplasmic domain (Homo sapiens), please?
**Result** 35

**Query** Fill in the recorded VEGFR-2 kinase % inhibition @ 1 uM for this molecule, with recombinant human baculoviral VEGFR2 cyctoplasmic domain (Homo sapiens) as test system: COC(=O)c1ccc2[nH]cc(C=C3C(=O)NN=C3c3ccoc3)c2c1
**Result** 34

* * *

# assayedSystem: baculoviral GST-MLK3KD (Homo sapiens)
# Construct: 2 μg/ml of baculoviral GST-MLK3KD; GST (N); host or cells: baculovirus expression system
# assayOverview: Mixed Lineage Kinase-3 inhibition assay (Millipore Multiscreen plate, 32P)
# Format: biochemical
# conditions: 1 uM compound; 100 μM ATP
Assign class by MLK-3 Kinase % inhibition @ 1 uM: not lower than 40% means criterion met; lower than 40% means criterion not met.

| smilesRecord | assayedSystem | assignedClass |
| --- | --- | --- |
| Cn1cc(C=C2C(=O)NN=C2c2nccs2)c2ccccc21 | baculoviral GST-MLK3KD (Homo sapiens) | criterion met |
| Cc1ccc2c(C=C3C(=O)NN=C3c3ccco3)c[nH]c2c1 | baculoviral GST-MLK3KD (Homo sapiens) | criterion not met |
| Cn1ccc(C2=NNC(=O)C2=Cc2c[nH]c3ccccc23)c1 | baculoviral GST-MLK3KD (Homo sapiens) | criterion not met |

**Query** Assess whether reported MLK-3 Kinase % inhibition @ 1 uM for Cc1cc(C)c(C=C2C(=O)NN=C2c2c(C)coc2C)[nH]1 sits at 40% or higher.
**Result** criterion met

**Query** Item Cc1cc(C)c(C=C2C(=O)NN=C2c2sc(C)nc2C)[nH]1 with MLK-3 Kinase % inhibition @ 1 uM of 40% or above?
**Result** criterion not met

**Query** hey, is MLK-3 Kinase % inhibition @ 1 uM for this one >= 40%? O=C1NN=C(c2cccs2)C1=Cc1c[nH]c2ccccc12
**Result** criterion met

**Query** Please indicate if the recorded MLK-3 Kinase % inhibition @ 1 uM for Cc1[nH]c(C=C2C(=O)NN=C2c2ccoc2)c(Br)c1Br meets or exceeds 40%.
**Result** criterion not met
